System: L1210 leukemia ip in BDF1 mice, survival T/C
Assay: NCI In Vivo Anticancer Drug Screen. Data for tumor model L1210 Leukemia (intraperitoneal) in B6D2F1 (BDF1) mice
Details: endpoint: mean survival time; dose: 100.0 mg/kg/injection; schedule: Q04DX003 (ip); vehicle: acetone; higher = longer survival
Toxic doses and inconclusive results are not listed.
Below, each of the molecules is paired with its reported T/C value.

{"molecule": "Cc1cc(C)c(S(=O)(=O)Cc2cc(Cl)cc(Cl)c2O)c(C)c1", "T/C": "89 % of control"}
{"molecule": "O=S(=O)(/C=C\\c1ccccc1)c1ccccc1", "T/C": "105 % of control"}
{"molecule": "CCOC(=O)C(N=Nc1nn[nH]n1)C(C)=O (stereo unspecified)", "T/C": "109 % of control"}
{"molecule": "CC(C)=CCC/C(C)=C/CNc1ncnc2nc[nH]c12", "T/C": "94 % of control"}
{"molecule": "NCCC1CCCCN1 (stereo unspecified)", "T/C": "108 % of control"}
{"molecule": "O=C(OCC(OC(=O)c1ccccc1)C(OC(=O)c1ccccc1)C(OC(=O)c1ccccc1)C(OC(=O)c1ccccc1)c1cnn(-c2ccccc2)n1)c1ccccc1 (stereo unspecified)", "T/C": "87 % of control"}

Values were extracted from PubChem BioAssay AID248.
